Origin of measurements: ChEMBL document CHEMBL3639362

# experimental.system: Serine/threonine-protein kinase PAK 4 (Homo sapiens, UniProt O96013)
# Sequence (O96013 whole entry): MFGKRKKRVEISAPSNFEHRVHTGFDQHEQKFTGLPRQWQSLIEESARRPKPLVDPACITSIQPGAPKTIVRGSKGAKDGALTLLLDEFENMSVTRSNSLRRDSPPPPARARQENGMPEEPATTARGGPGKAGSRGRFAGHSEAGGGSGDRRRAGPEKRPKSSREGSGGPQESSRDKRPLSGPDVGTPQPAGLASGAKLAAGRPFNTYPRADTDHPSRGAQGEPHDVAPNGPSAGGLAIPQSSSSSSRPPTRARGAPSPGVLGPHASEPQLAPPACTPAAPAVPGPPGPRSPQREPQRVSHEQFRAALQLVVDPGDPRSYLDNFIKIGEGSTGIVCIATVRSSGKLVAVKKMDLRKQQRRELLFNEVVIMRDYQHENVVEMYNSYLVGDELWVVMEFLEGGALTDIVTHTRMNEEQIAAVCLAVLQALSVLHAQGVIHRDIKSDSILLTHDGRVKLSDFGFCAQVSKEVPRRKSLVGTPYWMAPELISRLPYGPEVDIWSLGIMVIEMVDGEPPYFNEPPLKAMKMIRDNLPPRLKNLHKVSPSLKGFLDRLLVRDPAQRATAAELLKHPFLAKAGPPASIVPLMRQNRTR
# method.summary: Enzymatic Assay: The enzymatic activity of PAK4 KD was measured by its ability to catalyzed the transfer of a phosphate residue from a nucleoside triphosphate to an amino acid side chain of a commercially available peptide (amino acid sequence EVPRRKSLVGTPYWM).
endpoint: EC50

Q: What does the record list as EC50 for CC1(C)c2n[nH]c(Nc3nc(Cl)nc(N4CCC[C@H]4C(N)=O)n3)c2CN1C(=O)NC1C[C@@H]1c1ccccc1 (stereo partly specified) ?
A: > 4 µM
